target desc: Progesterone receptor (Homo sapiens) (UniProt P06401)
Sequence (P06401 whole entry, looked up): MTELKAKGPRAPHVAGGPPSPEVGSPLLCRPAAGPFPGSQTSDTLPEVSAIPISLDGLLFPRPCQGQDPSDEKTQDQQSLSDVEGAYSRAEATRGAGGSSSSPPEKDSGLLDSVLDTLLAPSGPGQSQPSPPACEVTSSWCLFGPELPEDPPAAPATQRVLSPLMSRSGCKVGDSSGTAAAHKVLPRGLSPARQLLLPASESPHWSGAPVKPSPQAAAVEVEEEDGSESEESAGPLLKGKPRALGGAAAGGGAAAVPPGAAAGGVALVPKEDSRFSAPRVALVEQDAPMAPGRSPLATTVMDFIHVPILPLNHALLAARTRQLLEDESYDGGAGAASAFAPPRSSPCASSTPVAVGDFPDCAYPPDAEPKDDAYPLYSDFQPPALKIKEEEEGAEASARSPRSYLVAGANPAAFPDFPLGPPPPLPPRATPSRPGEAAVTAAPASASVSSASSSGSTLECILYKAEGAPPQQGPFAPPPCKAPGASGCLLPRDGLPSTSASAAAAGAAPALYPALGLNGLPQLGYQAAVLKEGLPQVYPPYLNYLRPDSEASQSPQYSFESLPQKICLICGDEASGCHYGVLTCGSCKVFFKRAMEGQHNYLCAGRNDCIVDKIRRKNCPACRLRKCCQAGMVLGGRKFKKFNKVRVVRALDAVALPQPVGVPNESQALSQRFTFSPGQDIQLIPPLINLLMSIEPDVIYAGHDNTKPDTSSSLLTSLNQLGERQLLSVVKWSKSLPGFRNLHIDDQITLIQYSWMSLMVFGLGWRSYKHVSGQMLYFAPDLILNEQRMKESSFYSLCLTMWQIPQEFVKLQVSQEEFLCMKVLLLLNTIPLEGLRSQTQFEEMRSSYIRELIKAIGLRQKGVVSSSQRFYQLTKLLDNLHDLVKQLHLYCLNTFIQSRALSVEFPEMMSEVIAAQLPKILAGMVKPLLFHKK
assay text: qHTS assay to identify small molecule agonists of the progesterone receptor (PR) signaling pathway (AID 1346784); further: nearly all actives have a fitted effect of over 30% in size; further: potency means the concentration at half of the fitted maximal effect
condition: PR-UAS-bla HEK293T, beta-lactamase FRET ratio, 16 h; series mostly up to 92.4 µM
Inconclusive results are not listed. Calls of active or inactive are those of the source. The call rests on the fitted dose curve.
measured metric: Potency

Worked examples follow.
| molecule | measured metric | result |
| --- | --- | --- |
| FC(Cl)(Cl)Cl | Potency | inactive |
| CC(=[OH+])/C=C(/C)[O-].CC(=[OH+])/C=C(\C)[O-].CC(=[OH+])/C=C(\C)[O-].[Fe] | Potency | inactive |
| ClC1=C(Cl)[C@]2(Cl)[C@@H]3[C@@H](Cl)[C@H](Cl)C[C@@H]3[C@@]1(Cl)C2(Cl)Cl | Potency | inactive |
| CCN(CC)c1c([N+](=O)[O-])cc(C(F)(F)F)c(N)c1[N+](=O)[O-] | Potency | inactive |

Please look up its Potency: Nc1ccc([N+](=O)[O-])cc1Cl
inactive

Please look up its Potency: C[C@]12Cc3nonc3C[C@@H]1CC[C@@H]1[C@@H]2CC[C@@]2(C)[C@H]1CC[C@]2(C)O
1.19 µM (active)

Please look up its Potency: CC(C)(COCC1CO1)COCC1CO1 (stereo not drawn)
inactive

Please look up its Potency: CC(Cl)CN(C)C (stereo not drawn)
inactive

Please look up its Potency: CC(O)C#N (stereo not drawn)
inactive

Please look up its Potency: CCN
inactive

Please look up its Potency: COc1cccc(C(=O)CCN[C@@H](C)[C@H](O)c2ccccc2)c1
inactive

Please look up its Potency: COP(N)(=S)OC
inactive

Please look up its Potency: CCOC(=O)C1(c2ccccc2)CCN(CCC(C#N)(c2ccccc2)c2ccccc2)CC1
inactive

Please look up its Potency: ClC1=C(Cl)C2(Cl)C3C(Cl)C(Cl)CC3C1(Cl)C2(Cl)Cl (stereo not drawn)
inactive

Please look up its Potency: N#C/C=C/C#N
inactive

Please look up its Potency: CCCSP(=O)(OCC)SCCC
inactive

Please look up its Potency: CCCN(CCC)CCc1c[nH]c2ccccc12
inactive
